assay_target: Mcl-1 protein (Homo sapiens)
experiment_notes: Inhibition of Mcl-1 by the fluorescence polarisation technique (Method 1 or Method 2)
Assay type: binding
assay_setup: partial inhibitors; @ 10 μM test compound
readout_label: percentage fluorescence polarisation inhibition, Mcl-1 FP (% @ 10 μM)

Cc1c(-c2c(-c3ccsc3)sc3ncnc(NC(Cc4ccccn4)C(=O)O)c23)ccc(OCCN2CCOCC2)c1Cl (stereo not shown); 24.78

1: Cc1c(-c2c(-c3ccsc3)sc3ncnc(N[C@H](Cc4ccccn4)C(=O)O)c23)ccc(OCCN2CCN(C)CC2)c1Cl
2: CCc1sc2ncnc(N[C@H](Cc3ccccc3)C(=O)O)c2c1-c1ccc(OCCN2CCN(C)CC2)c(Cl)c1C
Prompt: Which of the two items, 1 and 2 , has the greater recorded percentage fluorescence polarisation inhibition, Mcl-1 FP? # respond with the chosen item's label
Response: 1
(1: 68.2 % @ 10 μM, 2: 12.18 % @ 10 μM)

====

assay_target: UniProt Q07820
experiment_notes: Inhibition of Mcl-1 by the fluorescence polarisation technique (Method 1 or Method 2)
Type: binding
assay_setup: partial inhibitors; @ 50 μM test compound
readout_label: percentage fluorescence polarisation inhibition, Mcl-1 FP (% @ 50 μM)

CCc1sc2ncnc(N[C@H](Cc3ccccc3)C(=O)O)c2c1-c1cccc2c1c(Cl)cn2CCN1CCCC1; 62.2
CCc1sc2ncnc(N[C@H](Cc3c(F)cccc3F)C(=O)O)c2c1-c1cccc(Cl)c1C; 67.4
CCc1sc2ncnc(N[C@H](Cc3ccccc3[N+](=O)[O-])C(=O)O)c2c1-c1cccc(Cl)c1C; 75.25
COc1ccccc1C[C@@H](Nc1ncnc2sc(C(C)C)c(-c3cccc(Cl)c3C)c12)C(=O)O; 70

====

assay_target: UniProt:Q07820
experiment_notes: Inhibition of Mcl-1 by the fluorescence polarisation technique (Method 1 or Method 2)
Format: binding
assay_setup: fluorescence polarisation, Fluorescein labelled ligand; Method 1 (not underlined) or Method 2 (underlined); read-out: IC50 (μM) Mcl-1 FP
readout_label: IC50 (µM)

A: CCc1sc2ncnc(NC(Cc3cccc(F)c3)C(=O)O)c2c1-c1cccc2ccccc12 (stereo not shown) [Example 178]
B: CCc1sc2ncnc(NC(Cc3ccccc3)C(=O)O)c2c1-c1cc(Cl)c(O)c(Cl)c1C (stereo not shown) [Example 53]
C: CCc1sc2ncnc(NC(Cc3ccccc3OCc3cccc(Cl)c3)C(=O)O)c2c1-c1cccc(Cl)c1C (stereo not shown) [Example 150]
D: CC(C)(O)c1sc2ncnc(NC(Cc3ccccc3)C(=O)O)c2c1-c1cccc2ccccc12 (stereo not shown)
Prompt: Put the molecules in ascending order of IC50. List the labels, following the order given in the request.
Response: B, C, A, D
(B: 0.02 µM, C: 0.528 µM, A: 3.23 µM, D: 8.36 µM)

====

assay_target: Mcl-1 protein (Homo sapiens)
experiment_notes: Inhibition of Mcl-1 by the fluorescence polarisation technique (Method 1 or Method 2)
Type: binding
assay_setup: fluorescence polarisation, Fluorescein labelled ligand; Method 1 (not underlined) or Method 2 (underlined); read-out: IC50 (μM) Mcl-1 FP
readout_label: IC50 (µM)

CCc1sc2ncnc(NC(Cc3ccccc3)C(=O)O)c2c1-c1cccc(F)c1C (stereo not drawn) [Example 69]; 0.109
CCc1sc2ncnc(NC(Cc3ccccc3O)C(=O)O)c2c1-c1cccc2ccccc12 (stereo not drawn) [Example 174]; 0.466
CCc1sc2ncnc(NC(CCc3ccccc3)C(=O)O)c2c1-c1cccc2ccccc12 (stereo not drawn) [Example 171]; 2.77
CCc1sc2ncnc(NC(Cc3ccccc3F)C(=O)O)c2c1-c1cccc2ccccc12 (stereo not drawn) [Example 180]; 2.1
CCc1sc2ncnc(N[C@H](Cc3ccccc3OC)C(=O)O)c2c1-c1cccc2ccccc12; 0.407
CCc1sc2ncnc(NC(Cc3cccc(F)c3)C(=O)O)c2c1-c1cccc2ccccc12 (stereo not drawn) [Example 179]; 0.881
CCc1sc2ncnc(NC(Cc3ccccc3)C(=O)O)c2c1-c1ccc(OCCCN2CCN(C)CC2)c(Cl)c1C (stereo not drawn); 0.025
CCc1sc2ncnc(NC(Cc3ccccc3)C(=O)O)c2c1-c1ccc(OCCCN(C)C)c(Cl)c1C (stereo not drawn); 0.092
CCc1sc2ncnc(NC(Cc3ccccc3OCCN(C)C)C(=O)O)c2c1-c1cccc(Cl)c1C (stereo not drawn); 0.309
CCc1sc2ncnc(NC(Cc3ccccc3)C(=O)O)c2c1-c1cccc2[nH]ccc12 (stereo not drawn) [Example 73]; 0.276

A: CC(C)c1sc2ncnc(N[C@H](Cc3ccccc3)C(=O)O)c2c1-c1cccc2ccccc12 (single isomer, unassigned) [Example 201]
B: C=C(C)c1sc2ncnc(NC(Cc3ccccc3)C(=O)O)c2c1-c1cccc2ccccc12 (stereo not drawn) [Example 107]
Prompt: Which of the two items, A and B , has the greater recorded IC50? # respond with the chosen item's label
Response: B

a: CCc1sc2ncnc(NC(CCc3ccccc3)C(=O)O)c2c1-c1cccc2ccccc12 (stereo not drawn) [Example 170]
b: CCc1sc2ncnc(NC(CC3CCCCC3)C(=O)O)c2c1-c1cccc2ccccc12 (stereo not drawn) [Example 166]
Prompt: Please let me know which one, a or b , has a lower measured IC50 value. # respond with the chosen item's label
Response: b
(b: 0.064 µM, a: 0.955 µM)

I: CCc1sc2ncnc(N[C@H](Cc3ccccc3)C(=O)O)c2c1-c1cccc(F)c1C
II: CCc1sc2ncnc(N[C@H](Cc3c[nH]cn3)C(=O)O)c2c1-c1cccc2ccccc12
III: C=Cc1sc2ncnc(NC(Cc3ccccc3)C(=O)O)c2c1-c1cccc2ccccc12 (stereo not drawn) [Example 103]
IV: CCc1sc2ncnc(NC(Cc3ccccc3O)C(=O)O)c2c1-c1cccc2ccccc12 (stereo not drawn) [Example 175]
V: CCc1sc2ncnc(NC(Cc3ccccn3)C(=O)O)c2c1-c1cccc(Cl)c1C (stereo not drawn)
Prompt: With regard to IC50, arrange the entries in ascending order, please. List the labels, following the order given in the request.
Response: V, I, III, IV, II

====

assay_target: Mcl-1 protein (Homo sapiens, UniProt Q07820)
Sequence (Q07820 whole entry): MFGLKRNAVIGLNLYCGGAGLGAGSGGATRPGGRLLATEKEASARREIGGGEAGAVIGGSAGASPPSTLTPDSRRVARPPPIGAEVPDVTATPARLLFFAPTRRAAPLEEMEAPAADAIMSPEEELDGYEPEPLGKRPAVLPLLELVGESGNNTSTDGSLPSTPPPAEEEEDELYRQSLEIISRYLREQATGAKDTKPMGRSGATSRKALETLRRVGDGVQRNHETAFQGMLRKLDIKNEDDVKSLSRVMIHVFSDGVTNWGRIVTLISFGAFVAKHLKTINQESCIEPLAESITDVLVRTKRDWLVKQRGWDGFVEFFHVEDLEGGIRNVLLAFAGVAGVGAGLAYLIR
experiment_notes: Inhibition of Mcl-1 by the fluorescence polarisation technique (Method 1 or Method 2)
Type: binding
assay_setup: fluorescence polarisation, Fluorescein labelled ligand; Method 1 (not underlined) or Method 2 (underlined); read-out: IC50 (μM) Mcl-1 FP
readout_label: IC50 (µM)

Use these answered entries as a reference point.
CCc1sc2ncnc(N[C@H](Cc3ccccc3)C(=O)O)c2c1-c1cccc2ccccc12 [Example 79]; 0.429
CCc1sc2ncnc(NC(Cc3ccccc3)C(=O)O)c2c1-c1cc(Cl)c(OCCN2CCN(C)CC2)c(Cl)c1C (stereo not shown) [Example 54]; 0.541

a: CCCCn1nccc1COc1ccccc1CC(Nc1ncnc2sc(-c3ccc(F)cc3)c(-c3ccc(OCCN4CCN(C)CC4)c(Cl)c3C)c12)C(=O)O (stereo not shown) [Example 6]
b: CCc1sc2ncnc(N[C@H](CCc3ccccc3)C(=O)O)c2c1-c1cccc2ccccc12 [Example 169]
Prompt: Which of the two items, a and b , has the greater recorded IC50? # respond with the chosen item's label
Response: b

====

assay_target: Mcl-1 protein (Homo sapiens, UniProt Q07820)
experiment_notes: Inhibition of Mcl-1 by the fluorescence polarisation technique (Method 1 or Method 2)
Type: binding
assay_setup: partial inhibitors; @ 10 μM test compound
readout_label: percentage fluorescence polarisation inhibition, Mcl-1 FP (% @ 10 μM)

CC#Cc1sc2ncnc(N[C@H](Cc3ccccc3OCc3ccnn3C(C)(C)C)C(=O)OCC)c2c1-c1ccc(OCCN2CCN(C)CC2)c(Cl)c1C; 57.15
Cc1c(-c2c(-c3ccsc3)sc3ncnc(NC(Cc4ccccc4CN)C(=O)O)c23)ccc(OCCN2CCOCC2)c1Cl (stereo not drawn); 18.7
COc1ccccc1C[C@@H](Nc1ncnc2sc(-c3ccc(F)o3)c(-c3ccc(OCCN4CCN(C)CC4)c(Cl)c3C)c12)C(=O)O; 40.05

a: Cc1c(Cl)cccc1-c1c(C(C)C)sc2ncnc(N[C@H](Cc3ccccc3)C(=O)O)c12
b: Cc1c(-c2c(-c3ccc(F)o3)sc3ncnc(N[C@H](Cc4ccccc4OCc4ccnc(OCC(F)(F)F)n4)C(=O)O)c23)ccc(OCCN2CCN(C)CC2)c1Cl
c: Cc1c(-c2c(-c3ccsc3)sc3ncnc(N[C@H](CC4CCCCC4)C(=O)O)c23)ccc(OCCN2CCN(C)CC2)c1Cl
Prompt: Could you please sort these 3 entries by percentage fluorescence polarisation inhibition, Mcl-1 FP from high to low? List the labels, following the order given in the request.
Response: b, a, c

====

assay_target: Mcl-1 protein (Homo sapiens)
experiment_notes: Inhibition of Mcl-1 by the fluorescence polarisation technique (Method 1 or Method 2)
Format: binding
assay_setup: fluorescence polarisation, Fluorescein labelled ligand; Method 1 (not underlined) or Method 2 (underlined); read-out: IC50 (μM) Mcl-1 FP
Experimental: The relative binding potency of each compound was determined via Fluorescence Polarisation (FP). An 11 point serial dilution of each compound was prepared in DMSO and 2 μl transferred into flat bottomed, low binding, 384-well plate (final DMSO concentration 5%). […]
readout_label: IC50 (µM)

a: CC#Cc1sc2ncnc(NC(Cc3ccccc3OCc3ccnc(OCC(F)(F)F)n3)C(=O)O)c2c1-c1ccc(OCCN2CCN(C)CC2)c(Cl)c1C (stereo not shown)
b: CCc1sc2ncnc(N[C@@H](C(=O)O)c3ccccc3)c2c1-c1cccc2ccccc12 (single isomer, unassigned) [Example 160]
c: CCc1sc2ncnc(N[C@H](Cc3cccnc3)C(=O)O)c2c1-c1cccc2ccccc12
d: C/C=C\c1sc2ncnc(N[C@H](Cc3ccccc3)C(=O)O)c2c1-c1cccc2ccccc12 [Example 104]
e: CCc1sc2ncnc(N[C@H](Cc3cccc4ccccc34)C(=O)O)c2c1-c1cccc2ccccc12 (single isomer, unassigned) [Example 186]
Prompt: Put the compounds in ascending order of IC50. List the labels, following the order given in the request.
Response: a, d, c, e, b

P: CC#Cc1sc2ncnc(NC(Cc3ccccc3OCc3ccnc(OCC(F)(F)F)n3)C(=O)O)c2c1-c1ccc(OCCN(C)C)c(Cl)c1C (stereo not shown)
Q: CCc1sc2ncnc(NC(Cc3cccnc3)C(=O)O)c2c1-c1cccc2ccccc12 (stereo not shown) [Example 163]
R: CCc1sc2ncnc(N[C@H](Cc3ccccc3Cl)C(=O)O)c2c1-c1cccc2ccccc12
S: COc1ccccc1CC(Nc1ncnc2sc(C(C)C)c(-c3cccc(Cl)c3C)c12)C(=O)O (stereo not shown)
T: CC(=O)c1sc2ncnc(NC(Cc3ccccc3)C(=O)O)c2c1-c1cccc2ccccc12 (stereo not shown) [Example 200]
Prompt: Could you please sort these 5 entries by IC50 from high to low? List the labels, following the order given in the request.
Response: Q, T, R, S, P
